Would you kindly list combination Emax for each of these compounds?
Tested on: UACC-62 (Melanoma)
Assay: combination Emax (second highest fraction inhibited in the dose matrix, 72 h); higher = more inhibition; extreme values may be limits of the assay
# answer = number (no unit)

QUERY: What measured combination Emax is associated with Cc1c2c(nn1C)CSCc1cc(n(C)n1)CSc1cc(c3ccccc3c1)OCCCc1c(C(=O)O)n(C)c3c-2c(Cl)ccc13 [AZD5991] + CS(=O)(=O)CCNCc1ccc(-c2ccc3ncnc(Nc4ccc(OCc5cccc(F)c5)c(Cl)c4)c3c2)o1 [Lapatinib] (first compound max 1 µM, 7x7, partner max 10 µM) on UACC-62 (Melanoma)?
RESULT: 0.576

QUERY: What measured combination Emax is associated with C=CCn1c(=O)c2cnc(Nc3ccc(N4CCN(C)CC4)cc3)nc2n1-c1cccc(C(C)(C)O)n1 [AZD1775] + C[C@@H]1COCCN1C2=NC(=NC(=C2)C3(CC3)[S@](=N)(=O)C)C4=C5C=CNC5=NC=C4 [AZD6738] (first compound max 1 µM, partner max 10 µM) on UACC-62 (Melanoma)?
RESULT: 0.622

QUERY: What measured combination Emax is associated with O=C(c1cc(Cc2n[nH]c(=O)c3ccccc23)ccc1F)N1CCN(C(=O)C2CC2)CC1 [Olaparib] + CN(CC[C@H](CSC1=CC=CC=C1)NC2=C(C=C(C=C2)S(=O)(=O)NC(=O)C3=CC=C(C=C3)N4CCC(CC4)[C@H](C5=CC=CC=C5C6=CC=C(C=C6)Cl)O)S(=O)(=O)C(F)(F)F)CCO [AZD4320] (first compound max 10 µM, 7x7, partner max 1 µM) on UACC-62 (Melanoma)?
RESULT: 0.198

QUERY: What measured combination Emax is associated with N#Cc1cnc(Nc2cc(NC[C@H]3CNCCO3)c(C(F)(F)F)cn2)cn1 [SRA737] + O=c1[nH]cc(F)c(=O)[nH]1 [5-Fluorouracil] (first compound max 10 µM, 7x7, partner max 20 µM) on UACC-62 (Melanoma)?
RESULT: 0.098

QUERY: What measured combination Emax is associated with Cc1c2c(nn1C)CSCc1cc(n(C)n1)CSc1cc(c3ccccc3c1)OCCCc1c(C(=O)O)n(C)c3c-2c(Cl)ccc13 [AZD5991] + C1CN(CCC1(C(=O)N[C@@H](CCO)C2=CC=C(C=C2)Cl)N)C3=NC=NC4=C3C=CN4 [Capivasertib] (first compound max 1 µM, 7x7, partner max 3 µM) on UACC-62 (Melanoma)?
RESULT: 0.934

QUERY: What measured combination Emax is associated with Cc1c2c(nn1C)CSCc1cc(n(C)n1)CSc1cc(c3ccccc3c1)OCCCc1c(C(=O)O)n(C)c3c-2c(Cl)ccc13 [AZD5991] + CN(C)CCCOc1ccc(-c2ccc3ncc4c(c3c2)n(C2CCOCC2)c(=O)n4C)cn1 [AZD0156] (first compound max 1 µM, 7x7, partner max 1 µM) on UACC-62 (Melanoma)?
RESULT: 0.812

QUERY: What measured combination Emax is associated with N#Cc1cnc(Nc2cc(NC[C@H]3CNCCO3)c(C(F)(F)F)cn2)cn1 [SRA737] + C=CCn1c(=O)c2cnc(Nc3ccc(N4CCN(C)CC4)cc3)nc2n1-c1cccc(C(C)(C)O)n1 [AZD1775] (first compound max 10 µM, partner max 1 µM) on UACC-62 (Melanoma)?
RESULT: 0.304

QUERY: What measured combination Emax is associated with COc1cccc(OCCCN)c1-c1cc(Nc2cnc(C#N)cn2)n[nH]1 [Prexasertib] + O=C(c1cc(Cc2n[nH]c(=O)c3ccccc23)ccc1F)N1CCN(C(=O)C2CC2)CC1 [Olaparib] (first compound max 1 µM, 7x7, partner max 10 µM) on UACC-62 (Melanoma)?
RESULT: 0.743
